test system: ryegrass, Italian; test: Test A preemergence; type: in vivo, Lolium multiflorum; settings: 1000 g ai/ha, 0 to 100 scale (0 no effect, 100 complete control), 10 days

| Molecule | Plant response rating, Ryegrass, Italian |
| --- | --- |
| Cc1cccc2c1OC(C)CN2C(=O)c1cccc(-n2cncn2)c1 (stereo not shown) [Compound 21] | 100 |
| C[C@H]1CN(C(=O)c2cccc(-n3cnnc3)c2)c2cccc(Cl)c2O1 [Compound 128] | 60 |
| CCC1CN(C(=O)c2ccnc(-n3cncn3)c2)c2c(Cl)cccc2O1 (stereo not shown) [Compound 14] | 20 |
| CC1CN(C(=O)c2cccc(-n3cncn3)c2)c2ccccc2O1 (stereo not shown) [Compound 31] | 90 |
| CC1CN(C(=O)c2ccnc(-n3cncn3)c2)c2ccccc2O1 (stereo not shown) [Compounds 8] | 40 |
| Cc1ccc(-n2cncn2)cc1C(=O)N1CC(C)Oc2c(Cl)cccc21 (stereo not shown) [Compound 33] | 100 |
| C[C@H]1CN(C(=O)c2cccc(-n3cncn3)c2)c2cc([N+](=O)[O-])ccc2O1 [Compound 49] | 30 |
| C[C@H]1CN(C(=O)c2cccc(-n3cnnn3)c2)c2cccc(Cl)c2O1 [Compound 115] | 90 |
| CCC1CN(C(=O)c2ccnc(-n3cncn3)c2)c2cc(Cl)ccc2O1 (stereo not shown) [Compound 12] | 0 |
| CCC1CN(C(=O)c2ccnc(-n3cncn3)c2)c2cccc(Cl)c2O1 (single isomer, unassigned) [Compound 4] | 0 |
| COc1cccc2c1OC(C)CN2C(=O)c1cccc(-n2cncn2)c1 (stereo not shown) [Compound 41] | 70 |
| O=C(c1ccnc(-n2cncn2)c1)N1CC(CF)Oc2c(Cl)cccc21 (stereo not shown) [Compound 36] | 50 |
| CC1CN(C(=O)c2cccc(-n3cncn3)c2)c2cccc(F)c2O1 (stereo not shown) [Compound 20] | 100 |
| CC1CN(C(=O)c2ccnc(-n3cncn3)c2)c2cccc(Cl)c2O1 (stereo not shown) [Compound 9] | 0 |
| C[C@H]1CN(C(=O)c2cccc(-c3ccncc3)c2)c2cccc(Cl)c2O1 [Compound 123] | 30 |
| Cc1nc(-c2cccc(C(=O)N3C[C@H](C)Oc4c(Cl)cccc43)c2)cs1 [Compound 125] | 60 |

---

Reported Plant response rating, Foxtail, Giant values for the following molecules.
test system: foxtail, giant; assay: Test A postemergence; assay type: in vivo, Setaria faberi; settings: 125 g ai/ha, postemergence, 10 days, visual injury, 0 to 100 scale (0 no effect, 100 complete control)

| Molecule | Plant response rating, Foxtail, Giant |
| --- | --- |
| CC1CN(C(=O)c2cc(F)cc(-n3cncn3)c2)c2cccc(Cl)c2O1 (stereo not shown) | 50 |
| Cc1cccc2c1O[C@@H](C)CN2C(=O)c1cccc(-n2cnc(C(C)C)n2)c1 | 100 |
| Cc1ccc(-n2cnc(C3CC3)n2)cc1C(=O)N1C[C@H](C)Oc2c(Cl)cccc21 | 50 |
| Cc1cccc2c1O[C@@H](C)CN2C(=O)c1cccc(-n2cnc(C3CCC3)n2)c1 | 70 |

---

system: blackgrass; test: Test A postemergence; type: in vivo, Alopecurus myosuroides; settings: 1000 g ai/ha, Postemergence; 0 to 100 scale
Reported Plant response rating, Blackgrass values for the following compounds.

| Compound | Plant response rating, Blackgrass |
| --- | --- |
| Cc1cc(C(=O)N2CC(C)Oc3c(Cl)cccc32)cc(-n2cncn2)c1 (stereo not shown) | 80 |
| Cc1cccc2c1O[C@@H](C)CN2C(=O)c1cccc(-n2cc(C#N)cn2)c1 | 0 |
| C[C@H]1CN(C(=O)c2cccc(-n3cnnc3)c2)c2cccc(Cl)c2O1 | 30 |
| CCC1CN(C(=O)c2ccnc(-n3cncn3)c2)c2cccc(I)c2O1 (stereo not shown) | 0 |
